Test system: Staphylococcus aureus
measurement.notes: Antimicrobial activity against Staphylococcus aureus 8325 by serial dilution method
Type: functional

| compound | qualifier.sign | MIC [µg/mL] |
| --- | --- | --- |
| CC[C@H]1OC(=O)[C@H](C)[C@@H](OCc2cn(CC(=O)Nc3ccccn3)nn2)[C@H](C)[C@@H](O[C@@H]2O[C@H](C)C[C@H](N(C)C)[C@H]2O)[C@@]2(C)CC(C)=C(O2)[C@H](C)[C@@H](OC(=O)C(C)C)[C@]1(C)OC(=O)C(C)C | = | 32 |
| CC[C@H]1OC(=O)[C@H](C)[C@@H](OCc2cn(-c3cnc4ccccc4c3)nn2)[C@H](C)[C@@H](O[C@@H]2O[C@H](C)C[C@H](N(C)C)[C@H]2O)[C@@]2(C)CC(C)=C(O2)[C@H](C)[C@@H](OC(=O)C(C)C)[C@]1(C)OC(=O)C(C)C | = | 32 |
| CC[C@H]1OC(=O)[C@H](C)[C@@H](OCc2cn(C34CC5CC(CC(C5)C3)C4)nn2)[C@H](C)[C@@H](O[C@@H]2O[C@H](C)C[C@H](N(C)C)[C@H]2O)[C@@]2(C)CC(C)=C(O2)[C@H](C)[C@@H](OC(=O)C(C)C)[C@]1(C)OC(=O)C(C)C | = | 16 |
| CC[C@H]1OC(=O)[C@H](C)[C@@H](O[C@H]2C[C@@](C)(OC)[C@@H](O)[C@H](C)O2)[C@H](C)[C@@H](O[C@@H]2O[C@H](C)C[C@H](N(C)C)[C@H]2O)[C@@]2(C)CC(C)=C(O2)[C@H](C)[C@@H](OC(=O)C(C)C)[C@]1(C)OC(=O)C(C)C | = | 32 |
| CC[C@H]1OC(=O)[C@H](C)[C@@H](OCc2cn(-c3cccc4ccccc34)nn2)[C@H](C)[C@@H](O[C@@H]2O[C@H](C)C[C@H](N(C)C)[C@H]2O)[C@@]2(C)CC(C)=C(O2)[C@H](C)[C@@H](OC(=O)C(C)C)[C@]1(C)OC(=O)C(C)C | = | 64 |
| CC[C@H]1OC(=O)[C@H](C)[C@@H](OCc2cn(-c3cccnc3)nn2)[C@H](C)[C@@H](O[C@@H]2O[C@H](C)C[C@H](N(C)C)[C@H]2O)[C@@]2(C)CC(C)=C(O2)[C@H](C)[C@@H](OC(=O)C(C)C)[C@]1(C)OC(=O)C(C)C | = | 128 |
| CC[C@H]1OC(=O)[C@H](C)[C@@H](O[C@H]2C[C@@](C)(OC)[C@@H](OC=O)[C@H](C)O2)[C@H](C)[C@@H](O[C@@H]2O[C@H](C)C[C@H](N(C)C)[C@H]2OC(C)=O)[C@@]2(C)CC(C)=C(O2)[C@H](C)[C@@H](OC(=O)C(C)C)[C@]1(C)OC(=O)C(C)C | = | 32 |
| CC[C@H]1OC(=O)[C@H](C)[C@@H](OCc2cn(CC(=O)O)nn2)[C@H](C)[C@@H](O[C@@H]2O[C@H](C)C[C@H](N(C)C)[C@H]2O)[C@@]2(C)CC(C)=C(O2)[C@H](C)[C@@H](OC(=O)C(C)C)[C@]1(C)OC(=O)C(C)C | > | 128 |
| C#CCO[C@H]1[C@H](C)[C@@H](O[C@@H]2O[C@H](C)C[C@H](N(C)C)[C@H]2O)[C@@]2(C)CC(C)=C(O2)[C@H](C)[C@@H](OC(=O)C(C)C)[C@](C)(OC(=O)C(C)C)[C@@H](CC)OC(=O)[C@@H]1C | = | 32 |
| CC[C@H]1OC(=O)[C@H](C)[C@@H](OCc2cn(CC(=O)OCc3ccccc3)nn2)[C@H](C)[C@@H](O[C@@H]2O[C@H](C)C[C@H](N(C)C)[C@H]2O)[C@@]2(C)CC(C)=C(O2)[C@H](C)[C@@H](OC(=O)C(C)C)[C@]1(C)OC(=O)C(C)C | = | 64 |
| CC[C@H]1OC(=O)[C@H](C)[C@@H](OCc2cn(Cc3ccccc3)nn2)[C@H](C)[C@@H](O[C@@H]2O[C@H](C)C[C@H](N(C)C)[C@H]2O)[C@@]2(C)CC(C)=C(O2)[C@H](C)[C@@H](OC(=O)C(C)C)[C@]1(C)OC(=O)C(C)C | = | 16 |
| CC[C@H]1OC(=O)[C@H](C)[C@@H](OCc2cn(CSc3ccccc3)nn2)[C@H](C)[C@@H](O[C@@H]2O[C@H](C)C[C@H](N(C)C)[C@H]2O)[C@@]2(C)CC(C)=C(O2)[C@H](C)[C@@H](OC(=O)C(C)C)[C@]1(C)OC(=O)C(C)C | = | 16 |
| CC[C@H]1OC(=O)[C@H](C)[C@@H](O)[C@H](C)[C@@H](O[C@@H]2O[C@H](C)C[C@H](N(C)C)[C@H]2OC(C)=O)[C@@]2(C)CC(C)=C(O2)[C@H](C)[C@@H](OC(=O)C(C)C)[C@]1(C)OC(=O)C(C)C | = | 128 |
| CC[C@H]1OC(=O)[C@H](C)[C@@H](O[C@H]2C[C@@](C)(OC)[C@@H](O)[C@H](C)O2)[C@H](C)[C@@H](O[C@@H]2O[C@H](C)C[C@H](N(C)C)[C@H]2O)[C@](C)(O)C[C@@H](C)C(=O)[C@H](C)[C@@H](O)[C@]1(C)O [ERYTHROMYCIN] | = | 64 |
| CC[C@H]1OC(=O)[C@H](C)[C@@H](OCc2cn(CCO)nn2)[C@H](C)[C@@H](O[C@@H]2O[C@H](C)C[C@H](N(C)C)[C@H]2O)[C@@]2(C)CC(C)=C(O2)[C@H](C)[C@@H](OC(=O)C(C)C)[C@]1(C)OC(=O)C(C)C | = | 128 |
